- target.desc: human MetAP2 enzyme (Homo sapiens)
- Sequence (P50579 whole entry): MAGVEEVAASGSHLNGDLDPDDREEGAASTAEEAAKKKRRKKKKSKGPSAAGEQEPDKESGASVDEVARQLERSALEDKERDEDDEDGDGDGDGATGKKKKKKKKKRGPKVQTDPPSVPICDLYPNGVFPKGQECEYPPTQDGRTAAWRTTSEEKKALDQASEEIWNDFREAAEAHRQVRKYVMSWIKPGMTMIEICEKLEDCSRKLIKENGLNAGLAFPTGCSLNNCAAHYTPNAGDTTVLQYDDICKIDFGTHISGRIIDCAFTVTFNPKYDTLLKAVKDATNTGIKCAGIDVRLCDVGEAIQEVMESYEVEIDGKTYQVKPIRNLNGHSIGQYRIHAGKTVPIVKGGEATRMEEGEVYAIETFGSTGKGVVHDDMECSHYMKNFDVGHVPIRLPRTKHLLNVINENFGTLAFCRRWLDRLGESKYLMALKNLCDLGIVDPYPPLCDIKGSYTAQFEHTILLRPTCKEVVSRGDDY
- procedure.details: MetAP2 enzyme assay, enzyme complexed with cobalt ions
- test.conditions: MetAP2 Co pIC50, MetAP2 enzyme complexed with cobalt ions; Met-AMC substrate at Km
pIC50: −log10 of the molar value.
Tick true (1) if pIC50 is 7 or greater. Tick false (0) if pIC50 is less than 7.

Would you please look over these solved cases?
Cc1ccc(N)c(-c2cc(C(F)(F)F)cc3[nH]ncc23)n1 [Example 188]    false (0)
O=C(NCCO)c1cncc(-c2cc(C(F)(F)F)cc3[nH]ncc23)c1 [Example 290]    false (0)
Cn1cc(-c2cc(C(F)(F)F)cc3[nH]ncc23)c(=O)n(CC(=O)N2CCOCC2)c1=O [Example 310]    false (0)
FC(F)(F)c1cc(-c2cnn3ccccc23)c2cn[nH]c2c1 [Example 41]    true (1)
Cc1c(C(=O)N2CCN(C)CC2)cc(-c2cc(C(F)(F)F)cc3[nH]ncc23)c(=O)n1C [Example 401]    false (0)

Given the entry COCc1ccc(-c2cc(C(F)(F)F)cc3[nH]ncc23)cc1 [Example 48] , answer whether its pIC50 meets or surpasses 7.
true (1)

How about CS(=O)(=O)NCc1ccc(-c2cc(C(F)(F)F)cc3[nH]ncc23)cc1 [Example 95] ?
true (1)

How about CN(C)c1ncc(-c2cc(C(F)(F)F)cc3[nH]ncc23)cn1 [Example 247] ?
true (1)

How about CN(C)C(=O)c1cc(-c2cc(C(F)(F)F)cc3[nH]ncc23)c(=O)n(C)c1 [Example 353] ?
false (0)

How about OC(COc1ccccc1-c1cc(C(F)(F)F)cc2[nH]ncc12)CN1CCOCC1 (centres unmarked) [Example 180] ?
false (0)

How about Cc1nc(N2C[C@H]3C[C@H]3C2C(N)=O)ncc1-c1cc(C(F)(F)F)cc2[nH]ncc12 (some centres unmarked) [Example 415] ?
true (1)

How about Cc1nn(CC(=O)NC(C)C)c(C)c1-c1cc(C(F)(F)F)cc2[nH]ncc12 [Example 352] ?
true (1)

How about Cc1nn(CC(=O)NCCO)cc1-c1cc(C(F)(F)F)cc2[nH]ncc12 [Example 279] ?
true (1)

How about COc1ccc(-c2cc(C(F)(F)F)cc3[nH]ncc23)c2cccnc12 [Example 113] ?
true (1)
